# systemTested: T1, B3GNT2 (Homo sapiens, UniProt Q9NY97)
# T1 construct: The respective ORFs of candidate genes [CD274 (NM_014143), MCL1 (NM_021960), JUNB (NM_002229), and B3GNT2 (NM_006577)] were synthesized; expressed in transfected cells; host or cells: A375 melanoma cells (lentiviral ORF overexpression)
# T1 sequence (Q9NY97 1-397): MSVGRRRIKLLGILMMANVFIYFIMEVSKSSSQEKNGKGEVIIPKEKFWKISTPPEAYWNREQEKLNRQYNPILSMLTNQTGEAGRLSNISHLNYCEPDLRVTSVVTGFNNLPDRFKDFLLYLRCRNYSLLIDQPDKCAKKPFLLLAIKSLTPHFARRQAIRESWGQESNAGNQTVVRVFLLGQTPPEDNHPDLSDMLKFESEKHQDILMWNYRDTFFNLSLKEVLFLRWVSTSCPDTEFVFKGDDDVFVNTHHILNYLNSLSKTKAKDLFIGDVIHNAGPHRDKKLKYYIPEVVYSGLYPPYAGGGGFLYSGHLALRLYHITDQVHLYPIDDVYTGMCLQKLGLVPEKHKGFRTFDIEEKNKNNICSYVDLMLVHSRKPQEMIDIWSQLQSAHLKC
# assayProtocol: Co-IP of FLAG-tagged B3GNT2 followed by mass spectrometry
# Type: cell-based
# Set-up: unit not given here
# measurementContext: Co-IP with IgG control antibody, C-terminally FLAG-tagged B3GNT2; mass spectrometry count, unit not given
Entries and their C-term IgG
Please give the numeric answer without any surrounding text.

Recorded C-term IgG, per entry:
SLC25A22 (protein) MADKQISLPAKLINGGIAGLIGVTCVFPIDLAKTRLQNQQNGQRVYTSMSDCLIKTVRSEGYFGMYRGAAVNLTLVTPEKAIKLAANDFFRHQLSKDGQKLTLLKEMLAGCGAGTCQVIVTTPMEMLKIQLQDAGRIAAQRKILAAQGQLSAQGGAQPSVEAPAAPRPTATQLTRDLLRSRGIAGLYKGLGATLLRDVPFSVVYFPLFANLNQLGRPASEEKSPFYVSFLAGCVAGSAAAVAVNPCDVVKTRLQSLQRGVNEDTYSGILDCARKILRHEGPSAFLKGAYCRALVIAPLFGIAQVVYFLGIAESLLGLLQDPQA; 0
PIP (protein) QDNTRKIIIKNFDIPKSVRPNDEVTAVLAVQTELKECMVVKTYLISSIPLQGAFNYKYTACLCDDNPKTFYWDFYTNRTVQIAAVVDVIRELGICPDDAAVIPIKNNRFYTIEILKVE; 2

Query molecule follows.
Incoming: State its C-term IgG for this molecule: PRR4 (protein) QSTDNDVNYEDFTFTIPDVEDSSQRPDQGPQRPPPEGLLPRPPGDSGNQDDGPQQRPPKPGGHHRHPPPPPFQNQQRPPRRGHRQLSLPRFPSVSLQEASSFFQRDRPARHPQEQPLW
Outgoing: 0
